target: human ether-à-go-go-related gene (hERG) potassium channel (human, UniProt Q12809); test: primary screen, population patch clamp on CHO cells stably expressing hERG; higher = less effect of the substance;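 also: peak tail current of the secondary pulse compared with the same well before compound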
Sequence (Q12809 whole entry, looked up): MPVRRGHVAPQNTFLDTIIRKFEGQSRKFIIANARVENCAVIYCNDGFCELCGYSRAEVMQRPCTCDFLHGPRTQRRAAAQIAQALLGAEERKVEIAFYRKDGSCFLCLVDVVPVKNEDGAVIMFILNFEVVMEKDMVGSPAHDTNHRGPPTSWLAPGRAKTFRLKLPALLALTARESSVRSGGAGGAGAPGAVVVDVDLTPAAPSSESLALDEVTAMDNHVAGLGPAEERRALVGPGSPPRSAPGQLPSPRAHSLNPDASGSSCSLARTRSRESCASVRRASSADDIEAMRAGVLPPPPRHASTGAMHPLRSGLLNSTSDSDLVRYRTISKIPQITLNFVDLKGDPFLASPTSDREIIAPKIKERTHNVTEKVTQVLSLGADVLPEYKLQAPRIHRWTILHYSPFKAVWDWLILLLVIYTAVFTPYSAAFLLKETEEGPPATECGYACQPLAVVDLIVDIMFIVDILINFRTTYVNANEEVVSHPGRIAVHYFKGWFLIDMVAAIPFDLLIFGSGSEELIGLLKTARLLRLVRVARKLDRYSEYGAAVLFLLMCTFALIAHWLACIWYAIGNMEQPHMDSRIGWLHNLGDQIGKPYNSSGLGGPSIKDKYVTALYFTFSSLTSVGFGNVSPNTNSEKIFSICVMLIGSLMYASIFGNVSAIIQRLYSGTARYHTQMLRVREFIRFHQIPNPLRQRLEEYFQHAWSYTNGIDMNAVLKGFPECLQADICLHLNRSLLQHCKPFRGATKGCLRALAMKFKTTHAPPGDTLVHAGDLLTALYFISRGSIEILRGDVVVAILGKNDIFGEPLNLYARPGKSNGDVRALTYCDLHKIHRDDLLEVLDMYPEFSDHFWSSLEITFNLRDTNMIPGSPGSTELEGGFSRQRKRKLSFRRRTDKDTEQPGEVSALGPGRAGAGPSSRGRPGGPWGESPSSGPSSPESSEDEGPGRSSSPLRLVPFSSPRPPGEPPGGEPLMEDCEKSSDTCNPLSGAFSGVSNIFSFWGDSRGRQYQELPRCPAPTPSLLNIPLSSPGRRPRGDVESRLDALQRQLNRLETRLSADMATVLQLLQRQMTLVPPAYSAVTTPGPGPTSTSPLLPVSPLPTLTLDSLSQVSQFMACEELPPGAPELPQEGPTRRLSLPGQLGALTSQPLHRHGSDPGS
Out of some 310,000 compounds screened, about 14,000 (4.5%) showed an effect of 50% or more. The effect is printed as a negative number. Many of the other results were omitted from the sample, so strong results are more common in it than they were.
parameter: hERG current change (%, negative = inhibition) at 10uM (%)
One number for each entry, in %.

compound	result.number
O=C(O)C(=O)O.c1ccc(CC2CCN(Cc3ccccn3)CC2)cc1	-23.1
FC(F)(F)c1nnc2ccc(NCc3ccccc3)nn12	8.9
Cc1ccc(S(=O)(=O)N(C(=N)N)c2nc(N(C)C)nc(N(C)C)n2)cc1	4.96
COc1ccccc1NCCC(=O)OCC(=O)NC1CCCC(C)C1C (centres unmarked)	9.37

Give hERG current change (%, negative = inhibition) at 10uM for all compounds that follow.
1. CCOC(=O)C1(CCCc2ccccc2)CCN(C(=O)c2ccoc2)CC1
2. Cc1[nH]c2ccccc2c1CN1CCC(Cc2ccccc2)CC1.O=C(O)C(=O)O
3. O=c1[nH]c(=O)n(-c2ccc(F)cc2)c(O)c1/C=C1\C=Nc2ccccc21
4. COc1ccc(Br)cc1CN1CCN(C(=O)c2cccc(F)c2)CC1.O=C(O)C(=O)O
5. COc1cccc(C(=O)N2CCN(Cc3cc(Br)ccc3OC)CC2)c1.O=C(O)C(=O)O

Completion:
1. -54.3
2. -67.4
3. 6.63
4. -39.2
5. -51.8

For each listed entry, give its hERG current change (%, negative = inhibition) at 10uM.
1. CCOc1ccc(CCNC(=O)COC(=O)c2ccc(C)s2)cc1OCC
2. CCOC(=O)CNC(=O)c1ccc(C)cc1
3. N#CCc1c(C#N)c(N)nc(N2CCOCC2)c1C#N
4. CCOC(=O)c1cccc(NC(=O)CSc2nnc(-c3cccnc3)n2CC)c1
5. N#CCc1c(C#N)c(N)nc(N2CCN(C=O)CC2)c1C#N
6. CCOC(=O)c1cc(-c2ccc(N3CCOCC3)cc2)nn1-c1ccccc1

Completion:
[14.6, 4.88, 1.34, -37.5, -10.8, -48.9]

Give me hERG current change (%, negative = inhibition) at 10uM for each of these compounds, listed below.
1. CCOc1ccc(NC(=O)CN(C)C(=O)c2ccccc2Cc2ccccc2)cc1OCC
2. CSc1ccc(/C=C(\NC(=O)c2ccco2)C(=O)N2CCCCC2)cc1
3. O=C(Cn1cc(C(F)(F)F)ccc1=O)N/N=C/c1ccccc1O
4. CC(C)C(NC(=O)CCNC(=O)c1ccccc1Cl)c1nc2ccccc2[nH]1 (centres unmarked)

Completion:
1. -14
2. -29.6
3. -7.65
4. -9.36

Prompt: Requested field: hERG current change (%, negative = inhibition) at 10uM. Item: CCOC(=O)C1(CCCc2ccccc2)CCN(C(=O)CSC)CC1
Completion: -24.1

###

For each of the compounds below, state its hERG current change (%, negative = inhibition) at 10uM.
molecular target: human ether-à-go-go-related gene (hERG) potassium channel (human, UniProt Q12809); assay: primary screen, population patch clamp on CHO cells stably expressing hERG; higher = less effect of the substance;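 also: peak tail current of the secondary pulse compared with the same well before compound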
Among all 310,000 compounds or so, about 14,000 (4.5%) showed an effect of 50% or more. The effect is printed as a negative number. This excerpt belongs to a sample that is enriched for strong results.
Numbers only, in %.

In the examples that follow, each entry is paired with its recorded hERG current change (%, negative = inhibition) at 10uM.
compound	value.unit	result.number
O=C(O)Cn1nc(C(F)(F)F)c2c1CCC2	%	20.4
O=c1c2ccccc2c(-c2ccccc2)nn1-c1ccc(Cl)c(Cl)c1	%	13.3
COc1cc(C(=O)NC2CCN(Cc3nnnn3Cc3cccs3)CC2)cc(OC)c1OC	%	-5.59
Cc1cc2nc(C3CCN(Cc4nnnn4Cc4ccccc4)CC3)[nH]c2cc1C	%	-52.3
CCN(CC)C(=O)CN1CCC(c2nc3cc(C)c(C)cc3[nH]2)CC1	%	-15.7
CCN(CC)CC#CCC(O)(c1ccccc1)c1ccc(Br)cc1.Cl (stereo not drawn)	%	-50.1
CCN(CC)CC#CCC(C)(c1ccccc1)c1ccccc1.Cl	%	-54.8
Cc1ccc(-c2nc(CS(=O)CC(=O)NCCCN3CC(C)CC(C)C3)c(C)o2)cc1 (stereo not drawn)	%	-19.9

Below are 2 compounds. Give each one its hERG current change (%, negative = inhibition) at 10uM.
1. CCN(CC)CC#CCC(OC)(c1ccccc1)c1ccccc1.Cl
2. Cc1ccccc1C(=O)NC1CCN(Cc2nnnn2Cc2ccccc2)CC1

Completion:
-32.5
-47.8
